So I've got a bunch of compounds here, and I need their melting point values.

Task item: Determine from records and report melting point for O=C(c1ccc(-c2ccncc2)cc1)N1CCN(S(=O)(=O)c2nc3ccc(Cl)cc3[nH]2)CC1
Reply: 242 to 244 °C

Task item: Determine from records and report melting point for O=C(c1ccc(-c2ccncc2)cc1)N1CCN(S(=O)(=O)c2cc3ccc(Cl)cc3[nH]2)CC1
Reply: 231 to 234 °C

Task item: Determine from records and report melting point for O=C(c1ccc(-n2ccnc2)cc1)N1CCN(S(=O)(=O)c2cc3cc(Cl)ccc3[nH]2)CC1
Reply: 155 to 165 °C

Task item: Determine from records and report melting point for O=C(c1ccc(-c2ccncn2)cc1)N1CCN(S(=O)(=O)c2cc3cc(Cl)ccc3[nH]2)CC1
Reply: 229 to 230 °C

Task item: Determine from records and report melting point for O=C(c1ccc(-c2ccncc2)cc1)N1CCN(S(=O)(=O)c2cc3cc(Cl)ccc3[nH]2)CC1
Reply: 185 to 188 °C

Task item: Determine from records and report melting point for O=C(c1ccc(-c2ccnnc2)cc1)N1CCN(S(=O)(=O)c2cc3cc(Cl)ccc3[nH]2)CC1
Reply: 170 to 172 °C
